Listed below: koff values for each entry.
System Name: T1, human PD-L1 (construct not stated) (human, UniProt Q9NZQ7 19-239, limits assumed)
T1 construct: also called B7-H1 (PD-L1); PD-L1 protein
T1 sequence (Q9NZQ7 19-239 limits assumed): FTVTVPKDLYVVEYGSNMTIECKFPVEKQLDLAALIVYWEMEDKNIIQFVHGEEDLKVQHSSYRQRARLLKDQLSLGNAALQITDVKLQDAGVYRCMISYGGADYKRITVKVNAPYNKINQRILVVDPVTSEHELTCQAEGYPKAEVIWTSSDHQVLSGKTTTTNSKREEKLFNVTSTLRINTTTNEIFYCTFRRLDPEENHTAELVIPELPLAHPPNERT
Test Method Notes: SPR Biacore, affinity ranking
Give a bare numeral; the unit s⁻¹ is implied.

>  <Binder>
C4 (antibody, V domains shown) VH: EVQLVESGGGLVQPGGSLRLSCAASGFTFSSYDMSWVRQAPGKSLEWVATISDAGGYIYYRDSVKGRFTISRDNAKNSLYLQMNSLRDEDTAVYICAREFGKRYALDSWGQGTTVTVSS VL: DIQMTQSPSSLSASVGDRVTITCKASQDVWPAVAWYQQKPGKAPKLLIYSTSSRYTGVPSRFSGSGSGTDFTFTISSLQPEDIATYYCQQHSTTPLTFGQGTKLEIK

>  <koff / s⁻¹>
0.000506

$$$$

Let's switch to this binder now.
Find the recorded koff belonging to C3 (antibody, V domains shown) VH: EVQLVESGGGLVQPGGSLRLSCAASGFTFSSYDMSWVRQAPGKSLEWVATISDAGGYIYYRDSVKGRFTISRDNAKNSLYLQMNSLRDEDTAVYICARELHFRYALDYWGQGTTVTVSS VL: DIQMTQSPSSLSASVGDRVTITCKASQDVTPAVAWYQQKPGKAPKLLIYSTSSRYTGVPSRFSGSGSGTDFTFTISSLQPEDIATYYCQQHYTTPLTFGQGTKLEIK and report it.
0.000299
